- study system: Methyl-CpG-binding domain protein 4 (Homo sapiens) (UniProt O95243);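 also: MBD4 activity read as fluorescence at 594 nm from cleavage and release of a quenched duplex DNA oligonucleotide, with APE1 coupled to incise the strand and raise turnover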
- Sequence (O95243 whole entry, the tested form may be a part): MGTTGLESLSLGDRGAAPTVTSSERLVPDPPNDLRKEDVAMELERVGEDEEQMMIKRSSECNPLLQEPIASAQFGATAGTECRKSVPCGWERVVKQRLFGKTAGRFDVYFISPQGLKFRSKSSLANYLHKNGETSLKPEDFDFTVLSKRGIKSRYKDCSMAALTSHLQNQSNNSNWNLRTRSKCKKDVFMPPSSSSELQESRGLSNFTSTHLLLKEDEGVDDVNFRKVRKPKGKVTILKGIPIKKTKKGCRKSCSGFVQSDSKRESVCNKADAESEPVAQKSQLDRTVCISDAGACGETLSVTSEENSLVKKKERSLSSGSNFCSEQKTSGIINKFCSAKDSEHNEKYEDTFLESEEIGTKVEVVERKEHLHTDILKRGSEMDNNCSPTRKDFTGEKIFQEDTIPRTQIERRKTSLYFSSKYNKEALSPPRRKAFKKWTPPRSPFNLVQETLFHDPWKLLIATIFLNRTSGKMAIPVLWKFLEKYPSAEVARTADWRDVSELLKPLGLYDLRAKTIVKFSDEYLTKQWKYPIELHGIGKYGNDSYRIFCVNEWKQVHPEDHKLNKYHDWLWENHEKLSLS
- condition notes: Compound Concentration 10.0 uM, Hit No
- Description: Inhibition of MBD4 by quantifying inhibition of MBD4-mediated cleavage and dissociation of quenched duplex DNA oligonucleotides, measured as fluorescence at 594 nm. To generate a functional strand incision and increase turn-over this assay is coupled to APE1.
parameter: inhibition (%)
Value expressed in %; do not type the unit.

Some molecules with recorded inhibition:
structure notation	quantitative result
COc1ccccc1-n1nc(C2CC(C)(C)OC(C)(C)C2)cc1-c1ccc(Cl)cc1	-1.99
C[C@H](N)Cn1ccc2cc(F)c(Cl)cc21	4.93
CCNC(=O)[C@H]1O[C@@H](n2cnc3c(N)ncnc32)[C@H](O)[C@@H]1O	-0.442
Cc1cn([C@@H](C)CC#N)c(=O)c2cc(Cn3nc(C(F)F)cc3Cl)nn12	56.2

Here is the next item to consider.
Short answer on Methyl-CpG-binding domain protein 4 (Homo sapiens) (UniProt O95243) for C[C@@H](NC(=O)Nc1cc2[nH]ncc2c(CO)n1)c1ccccc1 , inhibition: 29.7

Origin of the recorded values: ChEMBL document CHEMBL5665443
